# assay_details: human hepatoma cell viability loss – ATP luminescence, cytotoxicity control for P. falciparum antimalarial project, primary screen (AID 2303)
# run_conditions: HepG2 viability, 24-48 h, at 10 µM
Active and inactive are the calls of the source.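 Rule for the calls: active = inhibition above 50%; inactive = the rest.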
Labels: active, inactive

>>> class_assignment("CC(=O)c1cccc(NC(=O)C2c3ccccc3C(=O)N(CC(C)C)C2c2cccs2)c1 (centres undefined)")
"inactive"
>>> class_assignment("COc1ccc2c(NN=Cc3cccnc3)ccnc2c1")
"inactive"
>>> class_assignment("Cc1cc(Nc2ccc(OCc3ccccc3Cl)cc2)c2cc(Cl)ccc2n1")
"inactive"
>>> class_assignment("CC(C)(C)c1nn(-c2ccccc2)c2[nH]c(=O)c(CNCc3ccc4c(c3)OCO4)cc12")
"inactive"
>>> class_assignment("Cc1[nH]cnc1CSCCNC(N)=NCCCCCCCCN=C(N)NCCSCc1nc[nH]c1C")
"inactive"
>>> class_assignment("CN(C)Cc1ccc(-c2ccc(NC(=O)c3ccc4c(=O)n(Cc5ccoc5)cnc4c3)cc2)cc1")
"inactive"
>>> class_assignment("CCNc1cc(C(=O)N[C@@H](Cc2ccccc2)[C@H](O)CN[C@@H](C)c2cccc(OC)c2)cc(N2CCCC2=O)c1")
"inactive"
>>> class_assignment("CCc1c(CCNCCCCCCNC(C)(C)Cc2ccc3c(c2CC)OCO3)ccc(OC)c1OC")
"active"
>>> class_assignment("O=C(/C=C/c1ccc(F)cc1)NC1CCC(CCN2CCc3ccccc3CC2)CC1 (centres undefined)")
"inactive"
>>> class_assignment("CCNc1cc(C)nc(Nc2ccc(F)cc2)n1")
"inactive"
>>> class_assignment("CN(CCCNCc1ccc2ccccc2c1)CCCNCc1ccc2ccccc2c1")
"active"
>>> class_assignment("NC(=S)Cc1ccc2c(c1)OCO2")
"inactive"
>>> class_assignment("COc1ccc([N+](=O)[O-])cc1N(Cc1ccccc1-c1ccccc1)S(=O)(=O)c1ccc(C(F)(F)F)cc1")
"inactive"
>>> class_assignment("CC1(C)N=C(N)NC(NOCc2ccc(Cl)c(Cl)c2)=N1")
"inactive"
>>> class_assignment("Cc1noc(NC(=O)c2sc3ccccc3c2O)c1C")
"inactive"
>>> class_assignment("Cc1[nH]c(C)c(-c2ccc(-c3cccc(C(F)(F)F)c3)nc2)c(=O)c1Br")
"inactive"
>>> class_assignment("c1ccc(COc2ccc(COc3ccc(Cn4ccnc4)cc3)cc2)cc1")
"inactive"
>>> class_assignment("O=S(=O)(NCCN1CCCC1)c1cccc(-c2ccc(CNC3Cc4ccccc4C3)cc2)c1")
"active"
>>> class_assignment("C[C@@H](CC1CCCCC1)OC(=O)N[C@H]1CCN(C#N)C1")
"inactive"
>>> class_assignment("O=C(NC1CCCc2ccccc21)C1CCCN(C(=O)c2ccc(O)c(-c3ccc(Cl)c(Cl)c3)c2)C1 (centres undefined)")
"inactive"
>>> class_assignment("O=C(Nc1ccc(CN2CCCCC2)cc1)c1ccc(COc2ccc([N+](=O)[O-])cc2)o1")
"inactive"
>>> class_assignment("COc1ccc(CCN(C)CCCCc2ccc(NC(=O)c3cccc4c(=O)c5cc(F)ccc5sc34)cc2)cc1OC")
"active"
>>> class_assignment("O=C(/C=C/c1cccc(OC(F)(F)F)c1)NCCCCCN1CCC(c2c[nH]c3ccccc23)CC1")
"inactive"
>>> class_assignment("Cc1cc(NN=Cc2ccccc2F)c2cc(F)ccc2n1")
"inactive"
>>> class_assignment("CCc1nnc2sc(-c3cccc(NC(=O)c4ccc(C)c([N+](=O)[O-])c4)c3)nn12")
"inactive"
>>> class_assignment("Cc1cc(OCCN2CCCCC2)ccc1NC(=O)c1cccc2c(=O)n(Cc3ccc(Cl)cc3)cnc12")
"active"
>>> class_assignment("C[C@H](Cc1ccc(OCCCOc2ccc(C[C@@H](C)NC[C@H](O)c3cccc(Cl)c3)cc2)cc1)NC[C@H](O)c1cccc(Cl)c1")
"active"
>>> class_assignment("Cc1cc2nc(-c3ccc(/C=C/C(=O)NCCc4ccccc4)cc3)[nH]c2cc1C")
"inactive"
>>> class_assignment("CN1CCc2ccc(NC(=O)Nc3cccc([N+](=O)[O-])c3)cc2C1")
"inactive"
>>> class_assignment("COc1c(C2CCN(CCCCNC(=O)c3ccc(-c4ccc(C(=O)C(F)(F)F)cc4)cc3)CC2)ccc2c1CCCC2")
"active"
>>> class_assignment("CC(C)(CNC(=O)/C=C/c1ccc(C(F)(F)F)cc1)CNc1cc(=O)c2ccccc2[nH]1")
"inactive"
>>> class_assignment("CCOc1ccc2nc(C)cc(NN=Cc3cccc(F)c3)c2c1")
"inactive"
>>> class_assignment("C[C@@H]1CN(c2ccc3occ(C(=O)Nc4ccc(-c5ccncc5)c(Cl)c4)c3c2)C[C@H](C)N1C")
"inactive"
>>> class_assignment("COc1cccc2sc(Nc3nc(-c4ccccn4)cs3)nc12")
"inactive"
>>> class_assignment("COc1ccc2nccc([C@@H](O)CN3CCC(NCC(=O)Nc4cc(F)cc(F)c4)CC3)c2n1")
"inactive"
>>> class_assignment("Cc1nnc2c(NC(=O)NC3CCCC3)cc3cc(-c4ccc(CN5CCN(C)CC5)cc4)ccc3n12")
"active"
>>> class_assignment("CN1CCN(c2cccc(Nc3nccc(NCC(O)c4ccccc4)n3)c2)CC1 (centres undefined)")
"inactive"
>>> class_assignment("Cc1ccc(Nc2nc(NN=Cc3cc4c(cc3Br)OCO4)nc(Nc3ccc([N+](=O)[O-])cc3)n2)cc1C")
"inactive"
>>> class_assignment("CO/C(=C\\C=C\\c1cc2cc(Cl)c(Cl)cc2[nH]1)C(=O)Nc1ccc(NCCN(C)C)nc1")
"inactive"
